B1: HDV Ribozyme (parent)
chain: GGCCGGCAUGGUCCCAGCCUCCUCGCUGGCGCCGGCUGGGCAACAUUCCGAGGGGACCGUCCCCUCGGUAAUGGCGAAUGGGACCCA

- Variants of: B1
- protocol-description: self-cleavage, relative activity (ratio to wild type); higher = more cleavage; co-transcriptional
Rule: self-cleavage under 0.1 gives Not fulfilled, otherwise Fulfilled.

seq-string: GGCCGGCAUGGUCCCAGCCUCCUCGCUGGCCCCGGCUGGGCAACGUUCCGAGGGGACCGUCCCCUCGGUAAUGGCGAAUGGGACCCA
qualitative-label: Fulfilled

seq-string: GGCCGGCUUGGUCCCAGCCUCCUCGCUGGCGCCGGCUGGGCAACAUUCCGAGGGGACCGUCCCCUCGGUAAUGGUGAAUGGGACCCA
qualitative-label: Fulfilled

seq-string: GGCCGGUAUGGUCCCAGCCUCCUCGUUGGCGCCGGCUGGGCAACAUUCCGAGGGGACCGUCCCCUCGGUAAUGGCGAAUGGGACCCA
qualitative-label: Fulfilled

seq-string: GGCCGGCAUGGUCCCAGCCUCCUCGCUGGCGCCGCCUGGGCAACAUUCGGAGGGGACCGUCCCCUCGGUAAUGGCGAAUGGGACCCA
qualitative-label: Not fulfilled

seq-string: GGCGGGCAUGGUCCCAGCCUCCUCGCUGGCGCCGGCUGGGCAACAUUCCGAGGGGACCGUCCCCUCGGUAAUGGCGAACGGGACCCA
qualitative-label: Fulfilled

seq-string: GGCCGGCAUGGUCCCAGCCUCCUCGCUGGCCCCGGCUGGGCAACAUUCCGAGGGGACCGUCCCCACGGUAAUGGCGAAUGGGACCCA
qualitative-label: Fulfilled

seq-string: GGCCGGCAUGGUCCCAGCCUCCUCGCUCGCGCCGGCUGGGCAACAUUCCGAGGGGACCGUUCCCUCGGUAAUGGCGAAUGGGACCCA
qualitative-label: Fulfilled

seq-string: GGCCGGCAUGGUCCCAGACUCCUCGCUGGCGCCGGCUGGGCAACAUUCCGAGGAGACCGUCCCCUCGGUAAUGGCGAAUGGGACCCA
qualitative-label: Not fulfilled

seq-string: GGCGGGCAUGGUCCCAGCCUCCUCGCUGGCGCCGGCAGGGCAACAUUCCGAGGGGACCGUCCCCUCGGUAAUGGCGAAUGGGACCCA
qualitative-label: Not fulfilled

seq-string: GGCCGGCAUGUUCCCAGCCUCCUCGCUGGCGCCGGCUGGGCAACAUUCCGAGGGGACCGUCCCCUCCGUAAUGGCGAAUGGGACCCA
qualitative-label: Fulfilled

seq-string: GGCCGGCAUGGUCCCAGCCUCCUCGCUGGCGCCGGCGGGGCAACAUUCCGAGGGGACCGUCCCCUCGGUAAUGGCGAAUCGGACCCA
qualitative-label: Not fulfilled
